- experimentalTarget: T1, human MTP-2 expressed on HEK293 cells (human, UniProt Q8IU80 1-811)
- T1 sequence: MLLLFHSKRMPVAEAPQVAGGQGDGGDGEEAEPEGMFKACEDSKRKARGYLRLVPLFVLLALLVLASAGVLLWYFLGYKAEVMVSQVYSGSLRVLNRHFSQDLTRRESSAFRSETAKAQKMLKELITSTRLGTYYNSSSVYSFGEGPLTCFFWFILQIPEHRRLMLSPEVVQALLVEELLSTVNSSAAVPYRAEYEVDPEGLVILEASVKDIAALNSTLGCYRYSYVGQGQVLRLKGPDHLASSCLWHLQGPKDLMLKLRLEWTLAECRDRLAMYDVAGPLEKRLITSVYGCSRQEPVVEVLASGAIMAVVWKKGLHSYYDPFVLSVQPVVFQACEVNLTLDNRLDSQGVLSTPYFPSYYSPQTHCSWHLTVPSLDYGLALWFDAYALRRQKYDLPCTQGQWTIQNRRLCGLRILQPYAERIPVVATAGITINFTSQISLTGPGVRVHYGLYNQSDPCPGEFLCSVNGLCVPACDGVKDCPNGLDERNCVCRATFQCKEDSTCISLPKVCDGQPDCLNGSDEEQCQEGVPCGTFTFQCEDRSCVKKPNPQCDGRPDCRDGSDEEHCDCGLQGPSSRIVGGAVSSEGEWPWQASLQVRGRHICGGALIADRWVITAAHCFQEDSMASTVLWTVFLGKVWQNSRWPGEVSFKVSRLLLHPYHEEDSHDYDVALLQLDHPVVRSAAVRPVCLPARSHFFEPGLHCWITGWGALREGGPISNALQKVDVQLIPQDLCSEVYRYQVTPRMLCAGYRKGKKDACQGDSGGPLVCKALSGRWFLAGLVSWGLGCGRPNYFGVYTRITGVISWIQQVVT
- assayText: cell-based or functional assay
Inhibition enzymatic activity human MTP2 on cells (IC50) for assorted binders
Please state the figure in nM; there is no need to write the unit.

Prompt line: Please report the recorded Inhibition enzymatic activity human MTP2 on cells (IC50) for NORI-014 (antibody, human IgG4 S228P, lambda, V domains shown, human IgG4PE, lambda) VH: EVQLVESGGGLIQAGRSLRLSCAASGFTFDEHVMYWVRQIPGKGLEWISSITWKSDIIAYADSVKGRFTISRDNAKNALYLQMNSLRAEDTALYYCAREKDGDFYYYYFAMDVWGQGTTVTVSS VL: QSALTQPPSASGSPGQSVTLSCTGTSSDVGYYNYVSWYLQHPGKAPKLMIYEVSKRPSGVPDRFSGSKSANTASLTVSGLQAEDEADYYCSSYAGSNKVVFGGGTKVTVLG .
Response line: 0.532

Prompt line: Please report the recorded Inhibition enzymatic activity human MTP2 on cells (IC50) for NORI-018 (antibody, human IgG4 S228P, lambda, V domains shown) VH: QLQLVQSGAEVKKPGASVKVSCKASGYTFTTFGIVWVRQAPGQGLEWMGWISGYNGNTKYAQNLQGRVTMTTDTSTSTAYMELRSLRSDDTAIYYCARDRAIAPRFDPWGQGTLVTVSS VL: SYELTQPPSVSVSPGQAASIPCSGDNLGDNFACWYQQKPGQSPVLVIYQDSKRPSGIPERFSGSNSGNTATLTINGTQAMDEADYYCQAWDSSTVVFGGGTKLTVLG .
Response line: 2.22

Prompt line: Please report the recorded Inhibition enzymatic activity human MTP2 on cells (IC50) for NORI-025 (antibody, human IgG4 S228P, lambda, V domains shown) VH: QVQLVESGGGVVQPGRSLRLSCTASGVTFTNFDMHWVRQTPGKGLEWVAVIWYDESYSYYADSVQGRFTISRDNSKNSLYLQMNSLRADDTAVYYCARGWTGSYVFDYWGQGTLVTVSS VL: QSVLTQPPSVSEAPRQRVTISCSGSSSNIGNNAVNWYQQLPGKAPKLLISYDDLLPSGVSDRFSGSKSGTSASLAISGLQSADEADYYCAAWDDSLNAVVFGGGTKLTVLG .
Response line: 1.88
